system_under_test: FSHR (Homo sapiens, UniProt P23945)
Sequence (P23945 18-695): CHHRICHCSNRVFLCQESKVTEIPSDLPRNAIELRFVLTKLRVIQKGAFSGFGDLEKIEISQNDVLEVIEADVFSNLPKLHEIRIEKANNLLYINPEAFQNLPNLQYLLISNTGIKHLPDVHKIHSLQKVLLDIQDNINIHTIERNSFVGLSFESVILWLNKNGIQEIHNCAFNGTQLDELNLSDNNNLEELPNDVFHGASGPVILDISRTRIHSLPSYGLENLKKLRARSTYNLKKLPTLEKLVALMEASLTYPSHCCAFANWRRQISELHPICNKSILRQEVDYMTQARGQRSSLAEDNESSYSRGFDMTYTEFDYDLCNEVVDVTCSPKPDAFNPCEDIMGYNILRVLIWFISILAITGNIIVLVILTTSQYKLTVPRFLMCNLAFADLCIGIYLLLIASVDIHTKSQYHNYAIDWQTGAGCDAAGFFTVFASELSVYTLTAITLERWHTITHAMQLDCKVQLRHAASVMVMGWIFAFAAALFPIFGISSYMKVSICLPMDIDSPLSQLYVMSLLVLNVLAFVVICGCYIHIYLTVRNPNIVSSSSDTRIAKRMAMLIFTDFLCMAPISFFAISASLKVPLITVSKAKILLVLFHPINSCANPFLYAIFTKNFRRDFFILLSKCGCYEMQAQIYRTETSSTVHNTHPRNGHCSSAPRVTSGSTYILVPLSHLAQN
assay_remarks: EC50 of cyclic AMP production in CHO FSHR cells + EC20 FSH (HTRF)
measurement_setup: Cho-FSHR-LUC-1-1-43 cells, + EC20 FSH (0.265 pM), 200 μM IBMX, 1 h at 37° C.; read-out: EC50 of cAMP production
pEC50: −log10 of the molar value.
Returns one of True or False; True when pEC50 is >= 9.

# molecule, class_name
records = [
    ("[2H]c1c([2H])c([2H])c(C#Cc2ccc([C@@H]3S[C@H](CC(=O)NC([2H])([2H])C([2H])([2H])c4ccc(OC)c(OCC)c4)C(=O)N3c3cccc(C(N)=O)c3)cc2)c([2H])c1[2H] (single isomer, unassigned)", "True"),
    ("[2H]C([2H])(NC(=O)C[C@H]1S[C@@H](c2ccc(C#Cc3ccccc3)cc2)N(c2cccc(C(N)=O)c2)C1=O)C([2H])([2H])c1ccc(OC)c(OCC)c1 (single isomer, unassigned) [Compound 14]", "False"),
    ("[2H]c1c([2H])c([2H])c(C#Cc2c([2H])c([2H])c([C@H]3N(c4cccc(C(N)=O)c4)C(=O)[C@@H](CC(=O)NC([2H])([2H])C([2H])([2H])c4ccc(OC([2H])([2H])[2H])c(OCC)c4)[S@@+]3[O-])c([2H])c2[2H])c([2H])c1[2H] (single isomer, unassigned)", "False"),
    ("[2H]c1c([2H])c([2H])c(C#Cc2ccc([C@@H]3S[C@H](CC(=O)NCCc4ccc(O)c(O)c4)C(=O)N3c3cccc(C(N)=O)c3)cc2)c([2H])c1[2H]", "False"),
    ("[2H]C([2H])(NC(=O)C[C@H]1S[C@@H](c2ccc(C#Cc3ccccc3)cc2)N(c2cccc(C(N)=O)c2)C1=O)C([2H])([2H])c1ccc(OC)c(OC)c1", "False"),
]
